- measurement.notes: Drug uptake in Harlan Sprague-Dawley rat brain at 10 mg/kg, po after 2 hrs
- Format: ADME, organism-based
- Set-up: dose 10 mg/kg, route oral
- conditions: read-out: Drug uptake
measured.attribute: concentration at 2 h

query: Value lookup for concentration at 2 h; key = CC(C)c1cccc(-c2c(-c3ccc4nn(C)cc4c3)nsc2NC(=O)[C@@H]2C[C@H]2C)n1.Cl
result: 2850 nM

----------
- system.tested: Metabotropic glutamate receptor 5 (Rattus norvegicus)
- Sequence (P31424 whole entry): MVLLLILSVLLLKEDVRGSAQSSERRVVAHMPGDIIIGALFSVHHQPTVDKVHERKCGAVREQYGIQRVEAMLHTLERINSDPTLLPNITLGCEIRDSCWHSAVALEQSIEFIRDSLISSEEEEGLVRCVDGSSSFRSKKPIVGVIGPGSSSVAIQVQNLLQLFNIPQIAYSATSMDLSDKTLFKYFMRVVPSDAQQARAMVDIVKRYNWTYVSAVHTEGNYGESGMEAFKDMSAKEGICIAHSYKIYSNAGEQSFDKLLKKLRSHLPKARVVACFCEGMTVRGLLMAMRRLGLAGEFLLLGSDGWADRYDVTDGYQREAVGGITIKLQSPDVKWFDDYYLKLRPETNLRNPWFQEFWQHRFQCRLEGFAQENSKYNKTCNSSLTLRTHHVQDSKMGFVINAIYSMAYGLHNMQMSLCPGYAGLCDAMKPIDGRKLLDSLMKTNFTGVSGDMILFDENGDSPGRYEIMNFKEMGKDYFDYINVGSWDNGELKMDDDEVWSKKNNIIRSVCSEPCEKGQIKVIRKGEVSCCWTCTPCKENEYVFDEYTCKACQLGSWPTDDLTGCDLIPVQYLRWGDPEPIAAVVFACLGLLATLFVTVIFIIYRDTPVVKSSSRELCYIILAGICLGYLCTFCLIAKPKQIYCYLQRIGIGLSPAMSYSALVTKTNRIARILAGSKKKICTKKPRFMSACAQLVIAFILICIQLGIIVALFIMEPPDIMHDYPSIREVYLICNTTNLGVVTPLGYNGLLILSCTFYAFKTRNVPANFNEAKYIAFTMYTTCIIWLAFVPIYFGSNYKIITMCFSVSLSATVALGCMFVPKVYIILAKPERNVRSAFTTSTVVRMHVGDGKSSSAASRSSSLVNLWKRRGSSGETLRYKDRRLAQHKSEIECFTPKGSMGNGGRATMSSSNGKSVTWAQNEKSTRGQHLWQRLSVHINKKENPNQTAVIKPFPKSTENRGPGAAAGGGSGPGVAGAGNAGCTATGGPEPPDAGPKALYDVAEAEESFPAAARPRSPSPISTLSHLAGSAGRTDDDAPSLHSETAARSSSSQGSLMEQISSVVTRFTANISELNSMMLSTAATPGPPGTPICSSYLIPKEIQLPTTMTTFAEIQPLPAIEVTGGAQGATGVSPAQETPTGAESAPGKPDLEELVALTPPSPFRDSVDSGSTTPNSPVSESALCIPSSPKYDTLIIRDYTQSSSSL
- measurement.notes: Negative allosteric modulation of rat mGlu5 receptor
measured.attribute: pIC50
Give bare numbers, as −log10 of the molar value.

query: Value lookup for pIC50; key = CC(C)c1cccc(-c2c(-c3ccc4nn(C)cc4c3)nsc2NC(=O)[C@@H]2C[C@H]2C)n1.Cl
result: 6.78

----------
- measurement.notes: Drug uptake in Harlan Sprague-Dawley rat brain at 10 mg/kg, po after 1 hr
- Format: ADME, organism-based
- Set-up: dose 10 mg/kg, route oral
- conditions: read-out: Drug uptake
measured.attribute: concentration at 1 h (nM)
Numbers only, in nM.

query: Value lookup for concentration at 1 h; key = CC(C)c1cccc(-c2c(-c3ccc4nn(C)cc4c3)nsc2NC(=O)[C@@H]2C[C@H]2C)n1.Cl
result: 2230

----------
- measurement.notes: Drug uptake in Harlan Sprague-Dawley rat brain at 10 mg/kg, po after 6 hrs
- Type: ADME, organism-based
- Set-up: dose 10 mg/kg, route oral
- conditions: read-out: Drug uptake
measured.attribute: concentration at 6 h
Provide a numeric answer, followed by its unit.

query: Value lookup for concentration at 6 h; key = CC(C)c1cccc(-c2c(-c3ccc4nn(C)cc4c3)nsc2NC(=O)[C@@H]2C[C@H]2C)n1.Cl
result: 2980 nM

----------
- measurement.notes: Elimination half life in Harlan Sprague-Dawley rat at 1 mg/kg, iv
- Format: ADME, organism-based
- Parameters: dose 1 mg/kg, route intravenous
- conditions: in vivo, read-out: beta t1/2 (converted)
measured.attribute: half-life (h)
Give bare numbers, in h.

query: Value lookup for half-life; key = CC(C)c1cccc(-c2c(-c3ccc4nn(C)cc4c3)nsc2NC(=O)[C@@H]2C[C@H]2C)n1.Cl
result: 4.9

----------
- measurement.notes: Volume of distribution in Harlan Sprague-Dawley rat at 1.5 mg/kg, po and 1 mg/kg, iv
- Type: ADME, organism-based
- conditions: in vivo
measured.attribute: Vd (L/kg)
Give bare numbers, in L/kg.

query: Value lookup for Vd; key = CC(C)c1cccc(-c2c(-c3ccc4nn(C)cc4c3)nsc2NC(=O)[C@@H]2C[C@H]2C)n1.Cl
result: 2.7

----------
- system.tested: UniProtKB P41594
- Sequence (P41594 whole entry): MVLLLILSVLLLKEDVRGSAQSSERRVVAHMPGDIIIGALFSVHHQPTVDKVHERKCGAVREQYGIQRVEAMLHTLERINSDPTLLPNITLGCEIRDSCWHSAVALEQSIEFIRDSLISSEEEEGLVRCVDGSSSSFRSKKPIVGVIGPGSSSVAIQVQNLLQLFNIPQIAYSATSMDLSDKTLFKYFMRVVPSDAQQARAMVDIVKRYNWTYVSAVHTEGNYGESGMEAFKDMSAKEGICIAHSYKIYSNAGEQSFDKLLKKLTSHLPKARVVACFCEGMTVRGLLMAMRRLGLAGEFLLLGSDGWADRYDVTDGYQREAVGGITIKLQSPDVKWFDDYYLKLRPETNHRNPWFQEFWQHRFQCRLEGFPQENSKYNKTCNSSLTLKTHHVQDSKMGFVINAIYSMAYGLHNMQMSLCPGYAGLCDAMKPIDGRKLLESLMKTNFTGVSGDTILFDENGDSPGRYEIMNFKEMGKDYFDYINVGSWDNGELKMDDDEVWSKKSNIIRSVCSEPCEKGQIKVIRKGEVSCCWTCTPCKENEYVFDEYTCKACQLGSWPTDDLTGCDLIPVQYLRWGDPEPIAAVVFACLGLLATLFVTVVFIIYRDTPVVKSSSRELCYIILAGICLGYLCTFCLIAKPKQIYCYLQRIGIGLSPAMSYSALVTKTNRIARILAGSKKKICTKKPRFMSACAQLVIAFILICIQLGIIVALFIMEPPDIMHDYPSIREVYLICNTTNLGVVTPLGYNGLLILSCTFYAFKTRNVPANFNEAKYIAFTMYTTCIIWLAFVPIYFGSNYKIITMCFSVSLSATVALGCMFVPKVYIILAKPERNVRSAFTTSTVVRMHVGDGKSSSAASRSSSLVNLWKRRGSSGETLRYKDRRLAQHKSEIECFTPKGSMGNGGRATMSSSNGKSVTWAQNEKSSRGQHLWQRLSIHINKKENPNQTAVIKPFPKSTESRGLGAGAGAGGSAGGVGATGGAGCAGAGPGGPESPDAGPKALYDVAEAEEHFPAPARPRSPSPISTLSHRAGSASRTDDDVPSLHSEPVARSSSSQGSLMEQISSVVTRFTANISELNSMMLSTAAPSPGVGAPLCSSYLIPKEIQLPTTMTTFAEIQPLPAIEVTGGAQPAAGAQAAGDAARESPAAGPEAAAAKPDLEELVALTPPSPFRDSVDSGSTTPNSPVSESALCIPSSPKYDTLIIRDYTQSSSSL
- measurement.notes: Negative allosteric modulation of human recombinant mGlu5 receptor expressed in Syrian hamster AV12 cells assessed as receptor-mediated changes in intracellular calcium concentration by FLIPR assay
measured.attribute: pIC50
One number for each entry, as −log10 of the molar value.

Reference set, count: 3
# test.smiles, measured.attribute, test.value
rows = [
    ("COc1cccc(-c2c(-c3ccc4nn(C)cc4c3)nsc2NC(=O)[C@@H]2C[C@H]2C)n1", "pIC50", 7.44),
    ("C[C@@H]1C[C@H]1C(=O)Nc1snc(-c2ccc3nn(C)cc3c2)c1-c1cccc(C2CCC2)n1", "pIC50", 7.27),
    ("C[C@@H]1C[C@H]1C(=O)Nc1snc(-c2ccc3nn(C)cc3c2)c1-c1cccc(C2CC2)n1", "pIC50", 7.52),
]

For each of the compounds below, state pIC50.
1. CC(C)c1cccc(-c2c(-c3ccc4nn(C)cc4c3)nsc2NC(=O)[C@@H]2C[C@H]2C)n1.Cl
2. C[C@@H]1C[C@H]1C(=O)Nc1snc(-c2ccc3nn(C)cc3c2)c1-c1cccc(N(C)C)n1
3. CC(C)c1cccc(-c2c(-c3ccc4n[nH]cc4c3)nsc2NC(=O)[C@@H]2C[C@H]2C)n1
4. CCCc1cccc(-c2c(-c3ccc4nn(C)cc4c3)nsc2NC(=O)[C@@H]2C[C@H]2C)n1
5. Cc1cccc(-c2c(-c3ccc4nn(C)cc4c3)nsc2NC(=O)[C@@H]2C[C@H]2C)n1

result:
1: 7.72; 2: 7.70; 3: 7.35; 4: 7.70; 5: 7.35

query: Value lookup for pIC50; key = C[C@@H]1C[C@H]1C(=O)Nc1snc(-c2ccc3nn(C)cc3c2)c1-c1ccccn1
result: 7.54
